Target: Cathepsin K (Homo sapiens)
Experiment: Specificity of inhibitors: cathepsin K activity with Z-Phe-Arg-AMC
Assay type: biochemical
Conditions: pH 7.2, without pre-incubation
// values below are reported IC50

[[record]]
molecule = "Cc1cccc(C)c1C(=O)OCC(=O)[C@H](CCCCN)NC(=O)[C@H](CCCN=C(N)N)NC(=O)OCc1ccccc1 [Z-Arg-Lys-AOMK]"
parameter = "IC50"
test_value = "> 16 µM"


Now for a further molecule.
Short answer for Cc1cccc(C)c1C(=O)OCC(=O)C(CCCCN)NC(=O)C(CCC(=O)O)NC(=O)OCc1ccccc1 (stereo not drawn) [Z-Glu-Lys-AOMK] : IC50 was > 16 µM

---

Target: Cathepsin H (Homo sapiens, UniProt P09668)
Sequence (P09668 116-335 limits assumed, other chains not shown): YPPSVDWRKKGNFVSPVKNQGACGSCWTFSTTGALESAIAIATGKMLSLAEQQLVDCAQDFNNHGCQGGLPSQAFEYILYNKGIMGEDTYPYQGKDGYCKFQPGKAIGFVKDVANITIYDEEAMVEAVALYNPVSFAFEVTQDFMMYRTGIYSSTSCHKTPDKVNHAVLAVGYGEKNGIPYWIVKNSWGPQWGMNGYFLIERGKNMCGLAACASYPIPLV
Assay: Specificity of inhibitors: cathepsin H activity with Arg-AMC
Assay type: biochemical
Settings: pH 4.6, without pre-incubation
pIC50: −log10 of the molar value.
// values below are reported pIC50

[[record]]
compound = "Cc1cccc(C)c1C(=O)OCC(=O)C(CCCCN)NC(=O)C(CCC(=O)O)NC(=O)OCc1ccccc1 (centres unmarked)"
test_target = "Cathepsin H (Homo sapiens, UniProt P09668)"
test_value = "< 4.80"


Now for a further compound.
Short answer for Cc1cccc(C)c1C(=O)OCC(=O)[C@H](CCCCN)NC(=O)[C@H](CCCN=C(N)N)NC(=O)OCc1ccccc1 : pIC50 was < 4.80

---

Target: Cathepsin K (Homo sapiens)
Sequence (P43235 115-329): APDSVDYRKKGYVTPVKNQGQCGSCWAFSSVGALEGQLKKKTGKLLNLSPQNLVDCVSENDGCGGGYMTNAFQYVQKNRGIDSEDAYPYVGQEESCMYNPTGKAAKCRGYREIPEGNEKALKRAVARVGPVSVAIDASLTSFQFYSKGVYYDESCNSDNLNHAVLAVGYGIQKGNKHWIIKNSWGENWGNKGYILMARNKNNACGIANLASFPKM
Assay: Specificity of inhibitors: cathepsin K activity with Z-Phe-Arg-AMC
Format: biochemical
Conditions: pH 4.6, without pre-incubation
// values below are reported IC50

[[record]]
molecule = "Cc1cccc(C)c1C(=O)OCC(=O)C(CCCCN)NC(=O)C(CCC(=O)O)NC(=O)OCc1ccccc1 (centres unmarked)"
test_value = "> 16 µM"


Now for a further molecule.
Short answer for Cc1cccc(C)c1C(=O)OCC(=O)[C@H](CCCCN)NC(=O)[C@H](CCCN=C(N)N)NC(=O)OCc1ccccc1 : IC50 was > 16 µM

---

Target: cathepsin B (Homo sapiens)
Test: Cathepsin B inhibition, fluorogenic assay with Z-Phe-Arg-AMC substrate
Type: biochemical
Settings: cathepsin B, pH 7.2; irreversible inhibitor KI; mean ± SD
parameter: Ki (µM)

a. Cc1cccc(C)c1C(=O)OCC(=O)[C@H](CCCCN)NC(=O)[C@H](CCCN=C(N)N)NC(=O)OCc1ccccc1 [Z-Arg-Lys-AOMK]
b. Cc1cccc(C)c1C(=O)OCC(=O)C(CCCCN)NC(=O)C(CCC(=O)O)NC(=O)OCc1ccccc1 (stereo not drawn) [Z-Glu-Lys-AOMK]
Could you check which of a and b has a smaller value for Ki? Bench note: the answer is the label of the chosen record. a

---

Biological target: UniProt:P53634
Sequence (P53634 25-134 limits assumed): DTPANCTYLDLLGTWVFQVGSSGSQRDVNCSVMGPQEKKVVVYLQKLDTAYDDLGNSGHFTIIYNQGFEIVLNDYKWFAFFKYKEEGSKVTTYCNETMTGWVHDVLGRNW
Sequence (P53634 231-394 limits assumed): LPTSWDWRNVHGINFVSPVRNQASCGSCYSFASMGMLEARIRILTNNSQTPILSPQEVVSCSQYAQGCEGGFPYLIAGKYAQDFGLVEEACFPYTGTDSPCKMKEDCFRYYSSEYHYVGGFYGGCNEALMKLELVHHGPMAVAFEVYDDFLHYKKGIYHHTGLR
Sequence (P53634 395-463 limits assumed): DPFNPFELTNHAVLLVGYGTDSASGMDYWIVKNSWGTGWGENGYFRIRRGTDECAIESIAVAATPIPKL
Test: Specificity of inhibitors: cathepsin C activity with Gly-Arg-AMC
Format: biochemical
Details: Cathepsin C, pH 4.6; without pre-incubation
parameter: pIC50
pIC50 here is simply -log10 of the concentration when that concentration is written in mol/L.

Short answer for Cc1cccc(C)c1C(=O)OCC(=O)C(CCCCN)NC(=O)C(CCC(=O)O)NC(=O)OCc1ccccc1 (centres unmarked) : pIC50 was 5.07

Every entry's value here was drawn from paper PMC9104225.
